Biological target: T1, TβR1 (Homo sapiens, UniProt P36897)
T1 chain: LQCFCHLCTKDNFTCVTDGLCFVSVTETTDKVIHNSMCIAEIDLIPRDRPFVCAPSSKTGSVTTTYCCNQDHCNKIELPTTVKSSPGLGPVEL
Test: ELISA-like fluorescence binding assay
Primed or numbered codes have the meaning given here. Where no end group is shown, it is not given here. FITC′ = not defined here
experimental endpoint: Kd

binder: ECGLLPVGRPDRVWRLCK-{FITC′} (cysteine pairing not given here) [PTβR2I]
experimental endpoint: Kd
result value: > 34 µM
